biological target: D(2) dopamine receptor (Homo sapiens, UniProt P14416); test: Binding affinity against cloned human Dopamine receptor D2 (long) using [125I]iodosulpiride as radioligand
Sequence (P14416 whole entry): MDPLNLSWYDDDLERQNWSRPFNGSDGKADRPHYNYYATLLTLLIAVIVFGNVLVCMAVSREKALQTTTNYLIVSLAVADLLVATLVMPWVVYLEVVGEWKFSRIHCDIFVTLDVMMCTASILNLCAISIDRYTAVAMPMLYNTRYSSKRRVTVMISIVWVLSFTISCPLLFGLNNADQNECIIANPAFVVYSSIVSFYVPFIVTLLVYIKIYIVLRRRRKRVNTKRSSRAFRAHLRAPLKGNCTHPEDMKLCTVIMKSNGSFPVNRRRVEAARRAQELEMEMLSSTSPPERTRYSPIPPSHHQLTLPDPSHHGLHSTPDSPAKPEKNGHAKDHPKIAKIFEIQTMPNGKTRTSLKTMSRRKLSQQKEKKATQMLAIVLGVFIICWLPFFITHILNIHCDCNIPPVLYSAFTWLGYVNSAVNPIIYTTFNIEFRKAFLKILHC
QUANTITY MEASURED: Ki (nM)

MOLECULE: COc1cc2ccccc2cc1CC(=O)CC1CCN(Cc2ccccc2)CC1
Ki / nM: 1260

[I] COc1cc2ccccc2cc1C(=O)CCC1CCN(Cc2ccccc2)CC1
[II] COc1cc2ccccc2cc1C(=O)OCC1CCN(Cc2ccccc2)C1 (stereo unspecified)
Q) Compare Ki: is it lower for I or for II ? To answer, give the label that identifies your chosen option.
A) I
(I: 398 nM, II: 10000 nM)
